Where these numbers come from: PubChem BioAssay (NCI)

# assay_name: NCI Yeast Anticancer Drug Screen. Data for the bub3 strain (AID 167)
# measurement_conditions: S. cerevisiae bub3 mutant strain, at 50.0 µM, active compounds read high
The panel holds about 79,000 compounds, 15% with a hit somewhere; the sample as a whole holds those more often. Where a SMILES comes first, the peptide text is derived from it. The star is where a group is joined. Trt = c1ccc(C(c2ccccc2)(c2ccccc2)*)cc1; Cbz = O=C(OCc1ccccc1)*
metric_name: growth inhibition (%)
All answers are understood in %, so give the number only.

INSERT INTO measurements (compound, readout_number) VALUES
  ('CCOC(=O)CCC(NC(=O)C(CSC(c1ccccc1)(c1ccccc1)c1ccccc1)NC(=O)OCc1ccccc1)C(=O)NC(CCC(=O)OCC)C(=O)NC(CCC(=O)OCC)C(=O)NC(CCC(=O)OCC)C(=O)NC(CSC(c1ccccc1)(c1ccccc1)c1ccccc1)C(=O)OC (configuration not stated) (Cbz-C(Trt)E(OEt)E(OEt)E(OEt)E(OEt)C(Trt)-OMe; configuration not given here)', 72.2);

For this compound ( COC1=CC(=O)c2c(O)c3c(c(O)c2C1=O)OC1(Oc2c(cc4cc(C)oc(=O)c4c2O)CC1O)C3O (configuration not stated) ), measured growth inhibition is 91

---

# assay_name: NCI Yeast Anticancer Drug Screen. Data for the bub3 strain (AID 167)
# measurement_conditions: S. cerevisiae bub3 mutant strain, at 5.0 µM (retest, dose inferred, filed as 0.5)
About 79,000 compounds went through this panel and 15% of them were active in at least one assay; those are over-represented in the sample as a whole. The source made the active and inactive calls. Cut-off read from the data, not from the text of the source: active = growth inhibition above about 70%; inactive = the rest.
Give one outcome, nothing more. List: active, inactive

Past entries and their recorded results:
INSERT INTO results (molecule, cat) VALUES
  ('O=C1SC(c2ccccc2)=S=C1c1ccccc1', 'inactive'),
  ('O=C1c2ccc(O)c(O)c2C(=O)c2c(O)ccc(O)c21', 'active'),
  ('CC(=O)Nc1ccc(/C=C2/NC(=S)N(/C=C3\C(=O)Oc4ccccc4C3=O)C2=O)cc1', 'inactive');

Called result for COC(=O)C1(Cc2ccc3c(c2)CCC3)Cc2ccccc2C1O (stereo unspecified)
inactive

Called result for [C](#[C][Sn]([c]1ccccc1)([c]1ccccc1)[c]1ccccc1)[Sn]([c]1ccccc1)([c]1ccccc1)[c]1ccccc1
active

Called result for O=[N+]([O-])c1cc(C(F)(F)F)cc([N+](=O)[O-])c1CCl
active

Called result for COc1ccc(-c2nc(N)n(C)c2SSc2c(-c3ccc(OC)cc3)nc(N)n2C)cc1
inactive

Called result for O=C(Nc1cc(Cl)cc(Cl)c1)C(F)(F)F
active

Called result for CCO[Si](CC)(OCC)OCC
inactive

Called result for CCCCCCCCCCCC(=O)[O][Sn]([CH2]C)([CH2]C)[O]C(=O)CCCCCCCCCCC
inactive

Called result for O=C1C(=O)N(c2ccccc2)N=C1N=Nc1ccccc1
inactive

---

# assay_name: NCI Yeast Anticancer Drug Screen. Data for the mec2-1 strain (AID 157)
# measurement_conditions: S. cerevisiae mec2-1 strain, at 50.0 µM (retest, dose inferred, filed as 5.0)
The panel holds about 79,000 compounds, 15% with a hit somewhere; the sample as a whole holds those more often. The source made the active and inactive calls. Rule as the data show it: active = growth inhibition above about 70%; inactive = the rest.
Give one outcome, nothing more. List: true (1) (active), false (0) (inactive)

Past entries and their recorded results:
INSERT INTO measurements (compound, cat) VALUES
  ('CCCCN(CCCC)CCC(O)c1cc2c(c3ccccc13)CCCC2 (centres undefined)', 'true (1)'),
  ('CCCCCCCCCCC[N+](C)(C)CCCCCC[N+](C)(C)CCCCCCCCCCC', 'true (1)'),
  ('CS(=O)(=O)OCCN(CCOS(C)(=O)=O)c1ccc(C=Nc2cc(Cl)c(O)c(Cl)c2)c(Cl)c1', 'false (0)'),
  ('N=Nc1c(OC(=O)Nc2ccccc2)[nH]c2ccccc12', 'false (0)');

Called result for CCN(CC)CCC(=O)OC1C(C)=CC(C)C(=O)CC(C(C)CC2CCC(O)C(OC)C2)OC(=O)C2CCCCN2C(=O)C(=O)[C@@]2(O)OC(CCC2C)CC(OC)\C(C)=C/C=C/C=C/C(C)CC(C)C(=O)C1OC (some centres undefined)
true (1)

Called result for O=C1C=CC(=O)c2c(O)c(N3CCN(CCOCCO)CC3)c(Br)c(O)c21
true (1)

Called result for O=[N+]([O-])c1ccc(N/N=C/c2cccnc2)cc1
false (0)

Called result for CCCCCC/C=C\C=O
false (0)

Called result for O=C1/C(=C/c2ccccc2)CCC/C1=C\c1ccc(O)c(CN2CCCCC2)c1
false (0)
